ASSAYED_SYSTEM: β1,3-N-acetylglucosaminyltransferase 2 (B3GNT2) (Homo sapiens)
Construct: luminal domain, Lys45-Cys397 (crystal)
Sequence (Q9NY97 45-397, one chain of several): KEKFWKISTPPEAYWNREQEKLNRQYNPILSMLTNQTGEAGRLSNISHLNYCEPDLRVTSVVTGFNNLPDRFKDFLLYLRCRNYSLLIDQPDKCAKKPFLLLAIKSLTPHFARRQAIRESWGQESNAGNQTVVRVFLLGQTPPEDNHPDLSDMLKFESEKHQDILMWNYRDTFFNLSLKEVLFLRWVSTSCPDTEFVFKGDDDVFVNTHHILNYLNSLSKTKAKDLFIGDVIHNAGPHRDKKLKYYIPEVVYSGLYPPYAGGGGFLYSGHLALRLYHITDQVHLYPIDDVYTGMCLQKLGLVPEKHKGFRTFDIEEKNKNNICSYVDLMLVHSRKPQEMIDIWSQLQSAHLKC
ASSAY_INFO: crystal structure ([…] Å, soak) and SPR steady-state affinity
Type: binding
READOUT_LABEL: Kd

INSERT INTO results (compound, readout_label, observed_measurement) VALUES
  ('CC(=O)N[C@H]1[C@@H](OP(=O)(O)OP(=O)(O)OC[C@H]2O[C@@H](n3ccc(=O)[nH]c3=O)[C@H](O)[C@@H]2O)O[C@H](CO)[C@@H](O)[C@@H]1O [UDP-GlcNAc]', 'Kd', '~140 µM');

###

ASSAYED_SYSTEM: β1,3-N-acetylglucosaminyltransferase 2 (B3GNT2) (Homo sapiens)
Construct: luminal domain, Lys45-Cys397 (crystal)
ASSAY_INFO: crystal structure ([…] Å) and SPR steady-state affinity
Assay type: binding
READOUT_LABEL: Kd

INSERT INTO measurements (query_smiles, observed_measurement) VALUES
  ('O=c1ccn([C@@H]2O[C@H](COP(=O)(O)OP(=O)(O)O)[C@@H](O)[C@H]2O)c(=O)[nH]1', '~260 µM');

Recorded values, source paper PMC7948737.
